- Substrate: BHET
- measurement parameters: 120 h
reported property: plate clearing

unnamed (protein) MPMSLASASTLSGRAYSRSMRSRTRRRRARSRRRVPPVSARAETSKGSIGMPSSYGGARRGFSLGHPRGVRRGCVQATRRVRFLDWPRPAASRGAGDPSRGDTMTGTISSRIAMRAVACCIGLFAFTAGSASAQIGPDPTSASLNATAGSFAVSTSRVTLARGFGGGTIYYPTAAGSYGVVAISPGFTATESSIAWLGRRLATHGLVVITMNTNTTLDQPASRATQLMAALNHVVNSASSTVRSRVDSTRLAVAGHSMGGGGALIAAEDNPTLKAALPLTPWNLSTSFTQVRVPTLIVGSDGDTVAPVAAHARPFYASLPATTFKAYAELNAASHFTPNSTNTPIGRYGVTWMKRFVDADTRYSPFLCGAPHTAYATALVFDRYSQNCPY; not clears the plate
unnamed (protein) MKFRLAKLAVLSCALASASAFAQYQKGPDPTTSSLERAGSFATRTISVSSLAASGFGGGRIYYPTASGSYGVIAVSPGYTGTASTMYFWGERLSSHGFVVIVIETNTLLDQPGSRANQLMAALNYTVSQGNSRTSALYGKVDGNRRGVAGHSMGGGGTLIAAADNASLKAAVPMAPWNLSSLSFRGIRVPTMIFGCQSDAIAPVNTHAVPFYNAIPSSTKKGYVEMRLDDHFCVMNGGGHYETLGKLGISWFKRFIDEDTRYSKFLCGTEYNATVRSTEVSDSKNNCPY; not clears the plate
